Provide the reported MIC90 of each item.
test system: Staphylococcus aureus; assay: Antimicrobial activity against methicillin-resistant Staphylococcus aureus by microdilution method; assay type: functional
Unit µg/mL implied. Number only.

Item C/C(O)=C1\C(=O)[C@H](CC(C)C)N(Cc2ccc(-c3ccccc3)cc2)C1=O has what recorded MIC90?
1.6

Bench note: what MIC90 did CCCCCCCCCCN1C(=O)/C(=C(/C)O)C(=O)[C@@H]1CC(C)C show?
1.6

Request the reported MIC90 associated with CN[C@H](CC(C)C)C(=O)N[C@H]1C(=O)N[C@@H](CC(N)=O)C(=O)N[C@H]2C(=O)N[C@H]3C(=O)N[C@H](C(=O)N[C@H](C(=O)O)c4cc(O)cc(O)c4-c4cc3ccc4O)[C@H](O)c3ccc(c(Cl)c3)Oc3cc2cc(c3O[C@@H]2O[C@H](CO)[C@@H](O)[C@H](O)[C@H]2O[C@H]2C[C@](C)(N)[C@H](O)[C@H](C)O2)Oc2ccc(cc2Cl)[C@H]1O
0.4

Give the measured MIC90 of C/C(=C\C(=O)OCCCCCCCCC(=O)O)C[C@@H]1OC[C@H](C[C@@H]2O[C@H]2[C@@H](C)[C@H](C)O)[C@@H](O)[C@H]1O .
3.12

Value lookup for MIC90; key = C/C(O)=C1\C(=O)[C@H](CC(C)C)N(CC2=CCC3CC2C3(C)C)C1=O (some centres not stated)
3.12

Request the reported MIC90 associated with CCCCCCCCCCN1C(=O)/C(=C(/C)O)C(=O)[C@@H]1C(C)C
1.6

Reported MIC90, compound C/C(O)=C1\C(=O)[C@H](CC(C)C)N(CCC(C)C/C=C/C(C)C)C1=O (some centres not stated) : ____
1.6

----------
system: Staphylococcus epidermidis; test: Antimicrobial activity against Staphylococcus epidermidis RP62A grown as biofilms by microdilution method; assay type: functional
ATTRIBUTE_MEASURED: MBEC

Endpoint output: MBEC of CO[C@H]1/C=C/O[C@@]2(C)Oc3c(C)c(O)c4c(O)c(c(/C=N/N5CCN(C)CC5)c(O)c4c3C2=O)NC(=O)/C(C)=C\C=C\[C@H](C)[C@H](O)[C@@H](C)[C@@H](O)[C@@H](C)[C@H](OC(C)=O)[C@@H]1C . Value?
50 µg/mL

Can you look up the measured MBEC of C/C(O)=C1\C(=O)[C@H](CC(C)C)N(CC2=CCC3CC2C3(C)C)C1=O (stereo partly drawn) for me?
>400 µg/mL

Consider the molecule CCCCCCCCCCN1C(=O)/C(=C(/C)O)C(=O)[C@@H]1C(C)C and give its measured MBEC.
25 µg/mL

Suppose we examine the molecule CCCCCCCCCCN1C(=O)/C(=C(/C)O)C(=O)[C@@H]1CC(C)C ; what MBEC value has been reported?
50 µg/mL

Any idea what its MBEC is? The molecule is CN[C@H](CC(C)C)C(=O)N[C@H]1C(=O)N[C@@H](CC(N)=O)C(=O)N[C@H]2C(=O)N[C@H]3C(=O)N[C@H](C(=O)N[C@H](C(=O)O)c4cc(O)cc(O)c4-c4cc3ccc4O)[C@H](O)c3ccc(c(Cl)c3)Oc3cc2cc(c3O[C@@H]2O[C@H](CO)[C@@H](O)[C@H](O)[C@H]2O[C@H]2C[C@](C)(N)[C@H](O)[C@H](C)O2)Oc2ccc(cc2Cl)[C@H]1O
>400 µg/mL

What MBEC value was documented for this molecule, C/C(O)=C1\C(=O)[C@H](CC(C)C)N(Cc2ccc(-c3ccccc3)cc2)C1=O ?
200 µg/mL

What does the data say about its MBEC? Entry: C/C(=C\C(=O)OCCCCCCCCC(=O)O)C[C@@H]1OC[C@H](C[C@@H]2O[C@H]2[C@@H](C)[C@H](C)O)[C@@H](O)[C@H]1O
>400 µg/mL

Tell me the measured MBEC of C/C(O)=C1\C(=O)[C@H](CC(C)C)N(CCC(C)C/C=C/C(C)C)C1=O (stereo partly drawn) , please.
200 µg/mL
